Molecular target: Gamma-secretase
Assay: Effect on gamma-secretase activity in human H4 cells expressing APP695 assessed as reduction of Amyloid beta-38 formation by LPECL assay
Type: cell-based
This section presents compounds with their documented IC50 values.
Supply the numeric figure in µM, leaving out any unit text.

O=S(=O)(c1ccccc1)N(CC(F)(F)F)c1ccc(C(O)(C(F)(F)F)C(F)(F)F)cc1 [T091317]
4.5
Cc1ccc(S(=O)(=O)n2c3ccc(Cl)cc3c3ccc(C(C)C(=O)OCc4ccccc4)cc32)cc1 (stereo not given)
20

Now for the compound whose IC50 we want.
Given the entry CCCCCCCCN(c1ccc(OCC(=O)OC(C)(C)C)cc1)S(=O)(=O)c1cc(C(F)(F)F)cc(C(F)(F)F)c1 , report its measured IC50.
13.3

###

Reported EC50 values follow for various molecules
Biological target: Gamma-secretase
Assay: Effect on gamma-secretase activity in human H4 cells expressing APP695 assessed as increase in Amyloid beta-42 formation LPECL assay
Assay type: cell-based
Numbers only here, please. The scale is µM.

CC(C)(C)OC(=O)COc1ccc(NS(=O)(=O)c2cc(C(F)(F)F)cc(C(F)(F)F)c2)cc1
10.6

// map O=S(=O)(c1ccccc1)N(CC(F)(F)F)c1ccc(C(O)(C(F)(F)F)C(F)(F)F)cc1 [T091317] to recorded EC50 (system: Gamma-secretase)
3.6

How about CCCCCCCCN(c1ccc(OCC(=O)OC(C)(C)C)cc1)S(=O)(=O)c1cc(C(F)(F)F)cc(C(F)(F)F)c1 ?
6.2

Can you check Cc1ccc(S(=O)(=O)n2c3ccc(Cl)cc3c3ccc(C(C)C(=O)OCc4ccccc4)cc32)cc1 (stereo not given) next?
20

###

Test system: H4
Test: Cytotoxicity against human H4 cells assessed as reduction of viability
Format: cell-based
measure_name: Activity

CC(C(=O)OCc1ccccc1)c1ccc2c3cc(Cl)ccc3n(S(=O)(=O)c3cc(C(F)(F)F)cc(C(F)(F)F)c3)c2c1 (stereo not given)
> 40 µM
CC(C)(C)OC(=O)COc1ccc(NS(=O)(=O)c2cc(C(F)(F)F)cc(C(F)(F)F)c2)cc1
> 40 µM
CCCCCCCCCCn1c2ccccc2c2ccc(OCC(=O)O)cc21
> 40 µM
CCCCCCCCCCn1c2ccc(Cl)cc2c2ccc(C(C)C(=O)O)cc21 (stereo not given)
40 µM

As a next step, examine the compound that follows.
Fill in the blank: the reported Activity of Cc1ccc(S(=O)(=O)n2c3ccc(Cl)cc3c3ccc(C(C)C(=O)OCc4ccccc4)cc32)cc1 (stereo not given) is ____.
> 40 µM

###

Consider the following compounds and their measured EC50 readings.
Molecular target: Gamma-secretase
Experiment: Effect on gamma-secretase activity in human H4 cells expressing APP695 assessed as increase in Amyloid beta38 formation by LPECL assay
Format: cell-based
Reply numerically in µM, unit not repeated.

CC(C)c1cc(C(C)C)c(S(=O)(=O)n2c3ccc(Cl)cc3c3ccc(C(C)C(=O)O)cc32)c(C(C)C)c1 (centres undefined)
9.3
CCCCCCCCCCn1c2ccc(Cl)cc2c2ccc(C(C)C(=O)O)cc21 (centres undefined)
5.8
CCCCCCCCN(c1ccc(OCC(=O)O)cc1)S(=O)(=O)c1cc(C(F)(F)F)cc(C(F)(F)F)c1
23.7

Note: attention shifts to another entry.
EC50 lookup needed for CC(C)c1cc(C(C)C)c(S(=O)(=O)n2c3ccccc3c3ccc(OCC(=O)O)cc32)c(C(C)C)c1 , thanks.
7.8

// data source = ChEMBL document CHEMBL1139797
